system: Plasmodium falciparum; assay: Primary screen in NF54 nanoGlo assay, in single point, at 2uM, 72h; assay type: functional, Erythrocyte; settings: timepoint 72 hour
Hit rate of the full screen: of about 150,000 compounds, about 540 (0.36%) showed an effect of 50% or more. The list comes from a sample in which strong results are over-represented; it also holds close analogues and randomly drawn compounds.
Checkbox rule: Z score lower than -0.2 = Met; Z score not lower than -0.2 = Not met.

[[record]]
molecule = "CCO[C@H]1CN(C(=O)Cc2nc(C)sc2C)C[C@@H]1O"
assigned_category = "Not met"


Q: Please indicate whether the reported Z score of CC(C)(C)OC(=O)NC1CC(NCC(O)c2ccco2)C12CCC2 (centres undefined) is strictly below -0.2.
A: Not met

Q: Repeat for the following molecule: CCOCCC1CCN(C(=O)c2cccc(-n3cccn3)n2)CC1
A: Not met

Q: Repeat for the following molecule: CN(Cc1cnc2ccccc2c1)c1cnn(C)c1
A: Not met

Q: Repeat for the following molecule: O=C(CCn1c(=O)[nH]c2ccsc2c1=O)NCc1ccccc1
A: Met

Q: Repeat for the following molecule: Cc1cc(S(=O)(=O)N(CCN(C)C)C2CCN(C)CC2)c(C)o1
A: Not met

Q: Repeat for the following molecule: COC(=O)[C@H](CS(=O)(=O)Nc1cc(C)n(C)n1)c1ccccc1
A: Met

Q: Repeat for the following molecule: O=c1[nH]c2ccsc2c(=O)n1CCc1ccccc1
A: Met

Q: Repeat for the following molecule: CCCN(CC(=O)N(Cc1ccco1)C[C@H]1CCCO1)C(=O)c1ccc(C)cc1
A: Not met

* * *

test system: Plasmodium falciparum; test: Primary screen in NF54 nanoGlo assay, in single point, at 2uM, 72h; format: functional, Erythrocyte; details: timepoint 72 hour
Among all 150,000 compounds or so, about 540 (0.36%) showed an effect of 50% or more. This excerpt belongs to a sample that is enriched for strong results.
# % Inhibition listing for each entry below
Entry rule: numbers only, all in %.

As a guide, the following entries are already answered.
[[record]]
compound = "COc1cc(C(=O)Nc2ccc3sc(NC(=O)c4cc(OC)c(OC)c(OC)c4)nc3n2)cc(OC)c1OC"
unit_descriptor = "%"
recorded_number = 101

[[record]]
compound = "COc1cc(C(=O)Nc2ccc(Nc3ccc(C)nn3)cc2)cc(OC)c1OC"
unit_descriptor = "%"
recorded_number = 13

[[record]]
compound = "S=c1cc(-c2ccccc2)n(CCCc2ccccc2)c2c1CCCC2"
unit_descriptor = "%"
recorded_number = -6

[[record]]
compound = "CC(C)(C(=O)N[C@H]1CCN(Cc2cccnc2)C[C@@H]1O)N1CCOCC1"
unit_descriptor = "%"
recorded_number = -3

[[record]]
compound = "CCOc1cccc2c1OC[C@@H](C(=O)N1CCCS1(=O)=O)C2"
unit_descriptor = "%"
recorded_number = -7


Q: Find the recorded % Inhibition belonging to CCc1c(C)nn2c(c1C)c(-c1ccccc1)[n+]1c(C)c(CC)c(C)nc21 and report it.
A: 53

* * *

tested on: Plasmodium falciparum; assay: Primary screen in NF54 nanoGlo assay, in single point, at 2uM, 72h; format: functional, Erythrocyte; settings: timepoint 72 hour
Out of some 150,000 compounds screened, about 540 (0.36%) showed an effect of 50% or more. The list comes from a sample in which strong results are over-represented; it also holds close analogues and randomly drawn compounds.
Measured Property: % Inhibition (%)
Entry rule: numbers only, all in %.

Q: Look up % Inhibition with Plasmodium falciparum for this compound: CC(C)(Oc1ccc(Cl)cc1)C(=O)Nc1c2c(nn1C(C)(C)C)CS(=O)(=O)C2
A: -14

Q: Repeat for the following compound: COc1ccc(CC(=O)Nc2cc(C3CC3)nn2-c2nc(C)cc(=O)[nH]2)cc1
A: 0

Q: Repeat for the following compound: COc1cccc(NC(=O)Cn2ccc3ccc(-c4nnc(C)o4)cc32)c1
A: 7

Q: Repeat for the following compound: Cc1ccc(NC(=O)Cn2ccc3ccc(-c4nnc(C)o4)cc32)cc1
A: -3

Q: Repeat for the following compound: Cc1nnc(-c2ccc3ccn(CC(=O)Nc4ccc(F)c(Cl)c4)c3c2)o1
A: 85

Q: Repeat for the following compound: O=C(Nc1ccnn1C1CCC1)c1ccc(-c2cn[nH]c2)cn1
A: -10

* * *

system: Plasmodium falciparum; assay: Primary screen in NF54 nanoGlo assay, in single point, at 2uM, 72h; type: functional, Erythrocyte; details: timepoint 72 hour
About 540 (0.36%) of roughly 150,000 compounds showed an effect of 50% or more. The list comes from a sample in which strong results are over-represented; it also holds close analogues and randomly drawn compounds.
# Z score listing for each entry below
Just the number, please.

As a guide, the following entries are already answered.
[[record]]
compound = "COc1ccc(CC(=O)N2C3COCC2C3)nc1"
measured_property = "Z score"
recorded_number = -3.69

[[record]]
compound = "O=C(CNC(=O)NC1CC1)NCCc1cc(F)cc2c1OCOC2"
measured_property = "Z score"
recorded_number = 0.2


Please look at the following molecule next.
Q: Find the recorded Z score belonging to O=C(Nc1c(C(=O)Nc2ccc(F)c(F)c2)oc2ccccc12)c1cc2ccccc2o1 and report it.
A: 2.46

* * *

# % Inhibition listing for each entry below
system: Plasmodium falciparum; test: Primary screen in NF54 nanoGlo assay, in single point, at 2uM, 72h; type: functional, Erythrocyte; settings: timepoint 72 hour
Among all 150,000 compounds or so, about 540 (0.36%) showed an effect of 50% or more. Only a selection was taken, and strong results are over-represented in it overall.
Entry rule: numbers only, all in %.

As a guide, the following entries are already answered.
[[record]]
compound = "COc1ccc(S(=O)(=O)N2CCOC[C@H](Oc3ccccc3)C2)cc1"
measured_property = "% Inhibition"
recorded_number = 31

[[record]]
compound = "COC(=O)c1cc(OC)ccc1-c1cccc(C(=O)N2CCNC[C@@H]2C)c1"
measured_property = "% Inhibition"
recorded_number = -17

[[record]]
compound = "Cc1cccc(Cn2c(C(=O)Nc3ccccc3)cc3cc(NC(=O)C4CCC4)ccc32)c1"
measured_property = "% Inhibition"
recorded_number = 13

[[record]]
compound = "CCN(CC)CCNCc1cccc(Cl)c1Cl"
measured_property = "% Inhibition"
recorded_number = -2

[[record]]
compound = "Cc1ccc2[nH]c(-c3cc4n(n3)CCN(C(=O)N3CCN(C)CC3)C4)nc2c1"
measured_property = "% Inhibition"
recorded_number = -6


Q: Find the recorded % Inhibition belonging to CCOc1ccc(-c2nc(Cn3ccnn3)co2)cc1 and report it.
A: -6

Q: Repeat for the following compound: Clc1cccc(CNCCCNc2ccncc2)c1Cl
A: 67

Q: Repeat for the following compound: CCc1ccc(C2=C(C)C(N3CCC(C(=O)NC)CC3)=NS2(=O)=O)cc1
A: -2

Q: Repeat for the following compound: C[C@H]1COCCN1C(=O)CCc1ccco1
A: -2

Q: Repeat for the following compound: O=C(Cc1ccc(F)cc1Cl)N[C@@H](Cc1ccncc1)C1CC(O)C1 (stereo partly drawn)
A: -6

Q: Repeat for the following compound: FC(F)(F)c1ccc(-c2nc(Cn3ccnn3)co2)cc1
A: 89

Q: Repeat for the following compound: Cc1cccc(NC(=O)c2c[nH]c3nc(C)ccc3c2=O)c1
A: 4

Q: Repeat for the following compound: CC(C)(C)OC(=O)NC1CC(NCC(O)c2ccco2)C12CCC2 (stereo not drawn)
A: 0

Q: Repeat for the following compound: O=C(Cn1cnnn1)NCc1ccc2c(c1)CCC2
A: -44

Q: Repeat for the following compound: CCOC(=O)c1ncc(Cl)c(C#N)c1Cl
A: 50

Q: Repeat for the following compound: Cc1c(C(=O)O)nn(-c2ccc(F)cc2)c1Oc1ccc(NC(=O)CC(C)C)cc1S(=O)(=O)NCC(C)C
A: -16

Q: Repeat for the following compound: Cn1cc(Br)c2nc[nH]c(=O)c21
A: -14

Q: Repeat for the following compound: CCc1ccc([C@H]2NCCc3[nH]cnc32)nc1
A: 55

Q: Repeat for the following compound: O=C1N[C@H]2CC[C@@H]1CN(C(=O)c1cccc(-c3ccc4nccc(O)c4c3)c1)C2
A: -3

Q: Repeat for the following compound: COc1ccc2cc(-c3nc(CCN(C)C(=O)c4cccc(Cl)c4)no3)[nH]c2c1
A: -9

Q: Repeat for the following compound: O=C(N1CCCN(C2CCC2)CC1)C1(c2ccccc2)CCOCC1
A: -14

Q: Repeat for the following compound: C[C@H]1NC(=O)N(c2cccc(C#N)c2)C1=O
A: -4

Q: Repeat for the following compound: CCOC(=O)CCn1cc(F)c(=O)[nH]c1=O
A: 74

* * *

# Z score listing for each entry below
tested on: Plasmodium falciparum; assay: Primary screen in NF54 nanoGlo assay, in single point, at 2uM, 72h; a lower Z score goes with more inhibition; type: functional, Erythrocyte; conditions: timepoint 72 hour
The whole screen tested about 150,000 compounds, of which about 540 (0.36%) showed an effect of 50% or more. The full list was thinned out, with strong results kept by preference.
Just the number, please.

As a guide, the following entries are already answered.
[[record]]
compound = "COc1ccc(S(=O)(=O)N2CCC(c3cc(N)on3)CC2)cc1Cl"
target_or_system = "Plasmodium falciparum"
recorded_number = -3.68

[[record]]
compound = "Cc1ccc(S(=O)(=O)N(CC(=O)N[C@@H]2C[C@H]3CC[C@@H]2C3)c2cccc(Br)c2)cc1"
target_or_system = "Plasmodium falciparum"
recorded_number = 2.16

[[record]]
compound = "C[C@H](Nc1nc2nonc2n2nnnc12)c1ccccc1"
target_or_system = "Plasmodium falciparum"
recorded_number = -3.54

[[record]]
compound = "Cc1c(-c2cnn(C)c2)cc(C#N)n1C(F)F"
target_or_system = "Plasmodium falciparum"
recorded_number = 1.32

[[record]]
compound = "Oc1ccccc1CNc1cccc2cccnc12"
target_or_system = "Plasmodium falciparum"
recorded_number = -8.95


Q: Look up Z score with Plasmodium falciparum for this compound: O=C(NCC[C@H]1CCOC1)c1ccc(-c2ccc3cc[nH]c(=O)c3c2)cc1
A: 1.37

Q: Repeat for the following compound: COc1cccc(S(=O)(=O)N2CCC(c3cc(N)on3)CC2)c1
A: -2.95

Q: Repeat for the following compound: Cc1ccccc1CN[C@H]1CCCOCC1
A: 0.53
